assay: Antagonist activity at rabbit PAF receptor assessed as inhibition of PAF-induced platelet aggregation incubated for 5 mins followed by PAF addition
setup-conditions: Oryctolagus cuniculus
pIC50: −log10 of the molar value.
metric-name: pIC50

- C=CCC1=C[C@]2(OC)[C@H](C)[C@@H](c3cc(OC)c4c(c3)OCO4)[C@](OC)(C1=O)[C@H]2O: 5.96
- C=CC[C@H]1C[C@]2(OC)C(=C(OC)C1=O)O[C@@H](c1cc(OC)c(OC)c(OC)c1)[C@@H]2C: 6.64

[A] C=CCC1=C[C@@]2(OC)C(=CC1=O)O[C@H](c1ccc(OC)c(OC)c1)[C@H]2C
[B] C[C@@H]1C(=O)O[C@H]2[C@H](O)[C@@]34[C@H]5C[C@@H](C(C)(C)C)[C@]36[C@@H](OC(=O)[C@@H]6O)O[C@@]4(C(=O)O5)[C@@]12O [GINKOLIDE B]
[C] C=CC[C@H]1C[C@]2(OC)C(=C(OC)C1=O)O[C@@H](c1cc(OC)c3c(c1)OCO3)[C@@H]2C
q: Please rank these molecules by pIC50 in descending order. As an answer, provide the labels arranged in the order called for.
a: A, C, B
(A: 6.82, C: 6.41, B: 6.03)
